# Tested on: Mycoplasma synoviae
# assay.method.text: MIC, broth-dilution microtiter test, Mycoplasma synoviae
# Type: cell-based
# test.conditions: Mycoplasma synoviae; broth-dilution microtiter
Listed below: MIC values for each entry.
State just the number; it will be interpreted in µg/mL.

For orientation, consider the following solved cases.
molecule	result.units	value.measured
CCC1OC(=O)CC(O)C(C)C(OC2OC(C)C(O)C(N(C)C)C2O)C(CCOc2cc(Cl)cc(Cl)c2)CC(C)C(=O)C=CC(C)=CC1COC1OC(C)C(O)C(OC)C1OC (stereo not drawn)	µg/mL	0.19
CCC1OC(=O)CC(O)C(C)C(OC2OC(C)C(O)C(N(C)C)C2O)C(CCOc2cccc(Oc3ccccc3)c2)CC(C)C(=O)C=CC(C)=CC1COC1OC(C)C(O)C(OC)C1OC (stereo not drawn)	µg/mL	0.19

// query MIC value for entry CCC1OC(=O)CC(O)C(C)C(OC2OC(C)C(OC3CC(C)(O)C(O)C(C)O3)C(N(C)C)C2O)C(CCOc2ccccc2)CC(C)C(=O)C=CC(C)=CC1COC1OC(C)C(O)C(O)C1OC (stereo not drawn) 3.12

----------
Listed below: MIC values for each entry.
# Tested on: Streptococcus bovis 80
# assay.method.text: MIC, broth-dilution microtiter test, Streptococcus bovis 80
# Assay type: cell-based
# test.conditions: Streptococcus equinus; Streptococcus bovis 80; broth-dilution microtiter; read-out: MIC
State just the number; it will be interpreted in µg/mL.

For orientation, consider the following solved cases.
compound	MIC [µg/mL]
CCC1OC(=O)CC(O)C(C)C(OC2OC(C)C(O)C(N(C)C)C2O)C(CCOc2ccc(C=O)cc2)CC(C)C(=O)C=CC(C)=CC1COC1OC(C)C(O)C(OC)C1OC (stereo not shown) [Compound 36, 20-DH-20-O-(p-formylphenyl)desmycosin]	12.5
CCC1OC(=O)CC(O)C(C)C(OC2OC(C)C(O)C(N(C)C)C2O)C(CCOc2ccc(C(=O)c3ccccc3)cc2)CC(C)C(=O)C=CC(C)=CC1COC1OC(C)C(O)C(OC)C1OC (stereo not shown) [Compound 37, 20-DH-20-O-(p-Benzoylphenyl)desmycosin]	0.19

// query MIC value for entry CCC1OC(=O)CC(O)C(C)C(OC2OC(C)C(OC3CC(C)(O)C(O)C(C)O3)C(N(C)C)C2O)C(CCOc2ccccc2)CC(C)C(=O)C=CC(C)=CC1COC1OC(C)C(O)C(OC)C1OC (stereo not shown) [Compound 4, 20-DH-20-O-Phenyltylosin] 12.5

// same read-out, input: CCC1OC(=O)CC(O)C(C)C(OC2OC(C)C(OC3CC(C)(O)C(O)C(C)O3)C(N(C)C)C2O)C(CCCl)CC(C)C(=O)C=CC(C)=CC1COC1OC(C)C(O)C(OC)C1OC (stereo not shown) [Compound 7, 20-DH-DO-20-Chlorotylosin] 12.5

// same read-out, input: CCC1OC(=O)CC(O)C(C)C(OC2OC(C)C(OC3CC(C)(O)C(O)C(C)O3)C(N(C)C)C2O)C(CCOc2cc(Cl)cc(Cl)c2)CC(C)C(=O)C=CC(C)=CC1COC1OC(C)C(O)C(OC)C1OC (stereo not shown) [Compound 15, 20-DH-20-O-(3,5-Dichlorophenyl)tylosin] 6.25

// same read-out, input: CCC1OC(=O)CC(O)C(C)C(OC2OC(C)C(OC3CC(C)(O)C(O)C(C)O3)C(N(C)C)C2O)C(CCOc2ccc(C=O)cc2)CC(C)C(=O)C=CC(C)=CC1COC1OC(C)C(O)C(OC)C1OC (stereo not shown) [Compound 17, 20-DH-20-O-(p-Formylphenyl)tylosin] 50

// same read-out, input: CCC1OC(=O)CC(O)C(C)C(OC2OC(C)C(O)C(N(C)C)C2O)C(CCO[N+](=O)[O-])CC(C)C(=O)C=CC(C)=CC1COC1OC(C)C(O)C(OC)C1OC (stereo not shown) [Compound 28, 20-DH-20-O-NO2-desmycosin] 12.5

// same read-out, input: CCC1OC(=O)CC(O)C(C)C(OC2OC(C)C(O)C(N(C)C)C2O)C(CCSc2nnnn2C)CC(C)C(=O)C=CC(C)=CC1COC1OC(C)C(O)C(OC)C1OC (stereo not shown) [Compound 24] 12.5
